Experiment: Acute toxicity test with rat
Settings: rat, in vivo, 300 mg/kg; SD-rats, single oral administration; read-out: lethal dose (LD50)
test readout: LD50

- CC(O)c1coc(=O)c2c(O)cc(O)cc12 (centres unmarked): ≥ 300 mg/kg

Turning to the following compound.
INPUT: Suppose we examine the compound CC(=O)c1coc(=O)c2c(O)cc(O)cc12 [6,8-dihydroxy-4-acetyl-isocoumarin] ; what LD50 value has been reported?
OUTPUT: ≥ 300 mg/kg

Reference source for all entries: patent US6451846B1
